Where these numbers come from: ChEMBL document CHEMBL3085683

Lab note: log10 IC50 readings collected with Cholinesterase (Homo sapiens, UniProt P06276) for the following molecules.
Sequence (P06276 whole entry): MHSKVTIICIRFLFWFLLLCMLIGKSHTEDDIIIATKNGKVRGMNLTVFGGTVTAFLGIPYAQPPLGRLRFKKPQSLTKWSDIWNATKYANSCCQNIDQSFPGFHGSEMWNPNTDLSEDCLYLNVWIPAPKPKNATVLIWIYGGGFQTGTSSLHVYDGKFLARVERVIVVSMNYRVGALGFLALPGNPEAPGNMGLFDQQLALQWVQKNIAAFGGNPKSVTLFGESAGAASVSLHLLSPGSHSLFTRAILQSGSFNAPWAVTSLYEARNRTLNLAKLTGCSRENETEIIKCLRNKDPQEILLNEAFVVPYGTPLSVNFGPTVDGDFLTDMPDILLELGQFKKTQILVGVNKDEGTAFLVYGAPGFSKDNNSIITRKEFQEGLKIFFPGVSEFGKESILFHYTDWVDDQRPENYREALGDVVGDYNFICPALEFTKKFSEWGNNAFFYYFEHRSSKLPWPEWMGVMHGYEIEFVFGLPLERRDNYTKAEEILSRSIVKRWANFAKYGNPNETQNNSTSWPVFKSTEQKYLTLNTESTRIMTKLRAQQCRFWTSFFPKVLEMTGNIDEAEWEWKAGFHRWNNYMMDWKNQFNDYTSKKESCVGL
attribute.measured: log10 IC50 (log10 of the value in µM)

{"molecule": "O=C(Cc1ccccc1Nc1c(Cl)cccc1Cl)NCCCNCCCNC1=CC(=O)C(NCCCNCCCNC(=O)Cc2ccccc2Nc2c(Cl)cccc2Cl)=CC1=O", "readout.value": -0.44}
{"molecule": "CC1=C(CC(=O)NCCCNCCCNC2=CC(=O)C(NCCCNCCCNC(=O)CC3=C(C)/C(=C\\c4ccc([S+](C)[O-])cc4)c4ccc(F)cc43)=CC2=O)c2cc(F)ccc2/C1=C/c1ccc([S+](C)[O-])cc1 (centres undefined)", "readout.value": 1.17}
{"molecule": "CC(C(=O)NCCCNCCCNC1=CC(=O)c2ccccc2C1=O)c1ccc(-c2ccccc2)c(F)c1 (centres undefined)", "readout.value": 1.21}
{"molecule": "C[C@H](C(=O)NCCCNCCCNC1=CC(=O)C(NCCCNCCCNC(=O)[C@@H](C)c2ccc(-c3ccccc3)c(F)c2)=CC1=O)c1ccc(-c2ccccc2)c(F)c1", "readout.value": 0.89}
{"molecule": "CC(C)Cc1ccc(C(C)C(=O)NCCCNCCCNC2=CC(=O)C(NCCCNCCCNC(=O)C(C)c3ccc(CC(C)C)cc3)=CC2=O)cc1 (centres undefined)", "readout.value": 1.35}
{"molecule": "CC(C(=O)NCCCNC1=CC(=O)C(NCCCNC(=O)C(C)c2ccc(-c3ccccc3)c(F)c2)=CC1=O)c1ccc(-c2ccccc2)c(F)c1 (centres undefined)", "readout.value": 2.06}
{"molecule": "COc1ccc2c(c1)c(CC(=O)NCCCNCCCNC1=CC(=O)C(NCCCNCCCNC(=O)Cc3c(C)n(C(=O)c4ccc(Cl)cc4)c4ccc(OC)cc34)=CC1=O)c(C)n2C(=O)c1ccc(Cl)cc1", "readout.value": 1.27}
{"molecule": "C[C@@H](C(=O)NCCCNCCCNC1=CC(=O)C(NCCCNCCCNC(=O)[C@H](C)c2ccc(-c3ccccc3)c(F)c2)=CC1=O)c1ccc(-c2ccccc2)c(F)c1", "readout.value": 1.00}
